target: SRPK1 (Homo sapiens); construct: purchased MRC in Dundee (Premier Screen service); assay: Premier Screen kinase activity screening and IC50 determination (33P ATP filter binding); type: biochemical; settings: mean of two determinations, read-out: mean IC50
TEST READOUT: pIC50
Conceptually, pIC50 converts a concentration in mol/L into minus its log10.

Complete the entry with pIC50 for O=C(Nc1cc(C(F)(F)F)cc(C(F)(F)F)c1)Nc1ccc(Br)cc1-c1nnn[nH]1 [SCO-101]
5.52

====

molecular target: SRPK1 (Homo sapiens, UniProt Q96SB4); construct: purchased MRC in Dundee (Premier Screen service); experiment: Premier Screen kinase activity screening and IC50 determination (33P ATP filter binding); assay type: biochemical; conditions: first determination, 10 concentrations, read-out: IC50
Sequence (Q96SB4 whole entry): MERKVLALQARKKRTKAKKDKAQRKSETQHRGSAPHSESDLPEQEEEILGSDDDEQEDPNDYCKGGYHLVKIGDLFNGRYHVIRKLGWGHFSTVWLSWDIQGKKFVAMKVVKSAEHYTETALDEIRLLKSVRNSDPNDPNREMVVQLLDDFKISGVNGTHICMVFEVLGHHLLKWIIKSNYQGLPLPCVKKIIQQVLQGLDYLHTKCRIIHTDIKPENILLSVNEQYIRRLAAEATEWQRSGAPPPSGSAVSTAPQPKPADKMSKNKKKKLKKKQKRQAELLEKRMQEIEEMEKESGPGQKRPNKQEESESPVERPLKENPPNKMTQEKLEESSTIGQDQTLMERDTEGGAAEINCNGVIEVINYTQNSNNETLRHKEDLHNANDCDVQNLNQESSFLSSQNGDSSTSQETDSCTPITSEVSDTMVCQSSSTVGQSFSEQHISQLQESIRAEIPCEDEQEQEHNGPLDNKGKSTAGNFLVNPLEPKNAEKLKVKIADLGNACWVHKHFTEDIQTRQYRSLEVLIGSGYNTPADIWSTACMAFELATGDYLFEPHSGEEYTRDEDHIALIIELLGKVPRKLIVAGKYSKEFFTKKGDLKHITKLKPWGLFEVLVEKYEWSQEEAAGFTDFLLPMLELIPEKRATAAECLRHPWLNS
TEST READOUT: pIC50
Conceptually, pIC50 converts a concentration in mol/L into minus its log10.

Complete the entry with pIC50 for O=C(Nc1cc(C(F)(F)F)cc(C(F)(F)F)c1)Nc1ccc(Br)cc1-c1nnn[nH]1
5.54
